Target: SIRT1 (Homo sapiens, UniProt Q96EB6)
Sequence (Q96EB6 whole entry): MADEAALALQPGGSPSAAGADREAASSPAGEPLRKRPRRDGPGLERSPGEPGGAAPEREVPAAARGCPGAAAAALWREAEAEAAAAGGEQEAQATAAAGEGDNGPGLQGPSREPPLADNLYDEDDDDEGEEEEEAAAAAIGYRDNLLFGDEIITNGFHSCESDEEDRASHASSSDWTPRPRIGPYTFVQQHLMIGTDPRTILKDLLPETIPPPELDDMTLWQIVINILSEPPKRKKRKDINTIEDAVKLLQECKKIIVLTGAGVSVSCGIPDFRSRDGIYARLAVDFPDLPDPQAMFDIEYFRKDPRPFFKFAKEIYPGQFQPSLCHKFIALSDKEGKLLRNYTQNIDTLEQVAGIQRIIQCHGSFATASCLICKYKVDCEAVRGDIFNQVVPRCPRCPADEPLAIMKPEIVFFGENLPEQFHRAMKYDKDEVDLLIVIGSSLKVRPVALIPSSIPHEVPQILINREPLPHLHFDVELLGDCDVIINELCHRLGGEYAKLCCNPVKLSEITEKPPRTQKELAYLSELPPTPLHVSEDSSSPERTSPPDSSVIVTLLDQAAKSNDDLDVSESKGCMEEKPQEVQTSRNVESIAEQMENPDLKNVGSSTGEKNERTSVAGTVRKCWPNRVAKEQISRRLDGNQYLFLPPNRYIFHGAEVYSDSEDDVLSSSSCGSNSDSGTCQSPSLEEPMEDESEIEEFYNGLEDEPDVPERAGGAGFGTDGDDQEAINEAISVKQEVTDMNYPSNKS
Assay: Mass spectrometry based assay to identify modulators of SIRT1 activity (deacetylation of p53-based acetylated peptide)
Format: biochemical
Conditions: 10 nM SIRT1, 0.5 μM peptide substrate, 120 μM βNAD+, 25 minutes at 25° C.
Source text: A mass spectrometry based assay was used to identify modulators of SIRT1 activity. The mass spectrometry based assay utilizes a peptide having 20 amino acid residues as follows: Ac-EE-K(biotin)-GQSTSSHSK(Ac)NleSTEG-K(5TMR)-EE-NH2 (SEQ ID NO: 1) wherein K(Ac) is an acetylated lysine residue and Nle is a norleucine. The peptide is labeled with the fluorophore 5TMR (excitation 540 nm/emission 580 nm) at the C-terminus. The sequence of the peptide substrate is based on p53 with several modifications. […]
endpoint: % Fold Act. (percent maximum fold activation)

Examples with their reported % Fold Act. (percent maximum fold activation) follow.
- O=C(Nc1nccs1)c1cccc2c(=O)cc(-c3ccccc3OC(F)(F)F)[nH]c12: A (Fold activation>200%)
- O=C(Nc1nccs1)c1cncc2c(=O)cc(-c3cccc(C(F)(F)F)c3)[nH]c12: A (Fold activation>200%)
- Cn1c(-c2cccc(C(F)(F)F)c2)nc2c(C(=O)Nc3cccc(OCC(O)CO)c3)cccc2c1=O (stereo not shown) [Compound 360]: A (Fold activation>200%)
- O=C(Nc1cccc2c(=O)cc(-c3cccc(C(F)(F)F)c3)[nH]c12)c1ccncn1: A (Fold activation>200%)
- O=C(Nc1cccc2c(=O)cc(-c3cccc(C(F)(F)F)c3)[nH]c12)c1ccns1: A (Fold activation>200%)
- O=C(Nc1cccc2c(=O)cc(-c3ccccc3C(F)(F)F)[nH]c12)c1cnccn1: A (Fold activation>200%)

Provide % Fold Act. (percent maximum fold activation) for all items below, preserving their order.
1. Cn1cncc1-c1nc2c(C(=O)Nc3ccccn3)cccc2c(=O)n1C
2. O=C(Nc1cccc2c(=O)cc(-c3cccc(Cl)c3)[nH]c12)c1cscn1
3. CC(C)n1c(-c2cccc(C(F)(F)F)c2)nc2c(NC(=O)c3cnccn3)cccc2c1=O
4. Cn1c(-c2cccc(C(F)(F)F)c2)nc2c(C(=O)Nc3nnc(C(C)(C)C)s3)cccc2c1=O
5. Cn1c(-c2cccc(C(F)(F)F)c2)nc2c(C(=O)Nc3cccc(OC[C@H](O)CO)c3)cccc2c1=O

OUT:
["B (Fold Activation<200%)", "A (Fold activation>200%)", "A (Fold activation>200%)", "A (Fold activation>200%)", "A (Fold activation>200%)"]
